# system.tested: KRAS G12V (Homo sapiens (Human), UniProt P01116+P62937, G12V)
# Sequence (P01116 other isoform, or with tags, fused parts or gaps G12V): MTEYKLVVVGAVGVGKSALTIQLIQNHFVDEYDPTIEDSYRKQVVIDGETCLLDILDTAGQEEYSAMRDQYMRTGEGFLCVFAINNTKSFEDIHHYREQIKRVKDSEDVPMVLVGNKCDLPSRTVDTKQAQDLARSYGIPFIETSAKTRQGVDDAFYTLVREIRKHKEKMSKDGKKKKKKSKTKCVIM
# Sequence (P62937 whole entry): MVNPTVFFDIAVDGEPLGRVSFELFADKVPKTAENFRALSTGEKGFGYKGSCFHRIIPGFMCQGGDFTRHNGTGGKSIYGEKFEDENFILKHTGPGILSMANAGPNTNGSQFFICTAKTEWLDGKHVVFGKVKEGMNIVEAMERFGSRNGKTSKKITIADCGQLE
# procedure.summary: Ras-Raf disruption/FRET/MOA assay, KRAS G12V
# Format: biochemical
# condition.summary: read-out: KRAS G12V FRET IC50
# Text: Disruption of B-Raf Ras-Binding Domain (BRAF^RBD) Interaction with K-Ras by Compounds of the Invention (Also Called a FRET Assay or an MOA Assay) Note—The following protocol describes a procedure for monitoring disruption of K-Ras G12C (GMP-PNP) binding to BRAF^RBD by a compound of the invention. This protocol may also be executed substituting other Ras proteins or nucleotides, such as K-Ras G12D and K-Ras G13D. […]
Parameter IC50: see the listing below.

// solved cases for IC50 follow
[[record]]
compound = "CCn1c(-c2cnccc2COC)c2c3cc(ccc31)-c1cc(O)cc(c1)C[C@H](NC(=O)[C@H](C(C)C)N(C)C(=O)C1CN(C(=O)[C@H]3CN3)C1)C(=O)N1CCC[C@H](N1)C(=O)OCC(C)(C)C2"
system_tested = "KRAS G12V (Homo sapiens (Human), UniProt P01116+P62937, G12V)"
recorded_metric = "IC50"
result = "100 to 1000 nM"

[[record]]
compound = "CCn1c(-c2cnccc2COC)c2c3cc(ccc31)-c1cccc(c1)C[C@H](NC(=O)[C@H](C(C)C)N(C)C(=O)CCN=C=Nc1ccccc1COC)C(=O)N1CCC[C@H](N1)C(=O)OCC(C)(C)C2"
system_tested = "KRAS G12V (Homo sapiens (Human), UniProt P01116+P62937, G12V)"
recorded_metric = "IC50"
result = "1000 to 10000 nM"

[[record]]
compound = "CCn1c(-c2cccnc2[C@H](C)OC)c2c3cc(ccc31)-c1cccc(c1)C[C@H](NC(=O)[C@H](C(C)C)N(C)C(=O)[C@H]1CC[C@H](N=C=NC(C)(C)C)C1)C(=O)N1CCC[C@H](N1)C(=O)OCC(C)(C)C2"
system_tested = "KRAS G12V (Homo sapiens (Human), UniProt P01116+P62937, G12V)"
recorded_metric = "IC50"
result = "1000 to 10000 nM"

[[record]]
compound = "CCn1c(-c2cnccc2COC)c2c3cc(ccc31)-c1cc(O)cc(c1)C[C@H](NC(=O)[C@H](C(C)C)N(C)C(=O)[C@H]1CCN(C(=O)[C@@H]3CN3)C1)C(=O)N1CCC[C@H](N1)C(=O)OCC(C)(C)C2"
system_tested = "KRAS G12V (Homo sapiens (Human), UniProt P01116+P62937, G12V)"
recorded_metric = "IC50"
result = "100 to 1000 nM"

[[record]]
compound = "CCn1c(-c2cnccc2COC)c2c3cc(ccc31)-c1cc(O)cc(c1)C[C@H](NC(=O)[C@H](C(C)C)N(C)C(=O)CCN(C)C(=O)[C@H]1CN1)C(=O)N1CCC[C@H](N1)C(=O)OCC(C)(C)C2 (single isomer, unassigned)"
system_tested = "KRAS G12V (Homo sapiens (Human), UniProt P01116+P62937, G12V)"
recorded_metric = "IC50"
result = "100 to 1000 nM"


Which IC50 value belongs to CCn1c(-c2cnccc2COC)c2c3cc(ccc31)-c1cc(O)cc(c1)C[C@H](NC(=O)[C@H](C(C)C)N(C)C(=O)C1CN(C(=O)[C@@H]3CN3)C1)C(=O)N1CCC[C@H](N1)C(=O)OCC(C)(C)C2 ?
100 to 1000 nM

Do the same for CCn1c(-c2cccnc2[C@H](C)OC)c2c3cc(ccc31)-c1cccc(c1)C[C@H](NC(=O)[C@H](C(C)C)N(C)C(=O)CCN=C=NCc1ccccc1OC)C(=O)N1CCC[C@H](N1)C(=O)OCC(C)(C)C2 please
1000 to 10000 nM

Do the same for CCn1c(-c2cccnc2COC)c2c3cc(ccc31)-c1cc(O)cc(c1)C[C@H](NC(=O)[C@H](C(C)C)N(C)C(=O)CNC1=NCCO1)C(=O)N1CCC[C@H](N1)C(=O)OCC(C)(C)C2 please
1000 to 10000 nM

Do the same for CCn1c(-c2cnccc2COC)c2c3cc(ccc31)-c1cc(O)cc(c1)C[C@H](NC(=O)[C@@H](CCNC(=O)NCCCl)C(C)C)C(=O)N1CCC[C@H](N1)C(=O)OCC(C)(C)C2 please
1000 to 10000 nM

====

# system.tested: KRAS G12S (Homo sapiens (Human), UniProt P01116+P62937, G12S)
# Sequence (P01116 other isoform, or with tags, fused parts or gaps G12S): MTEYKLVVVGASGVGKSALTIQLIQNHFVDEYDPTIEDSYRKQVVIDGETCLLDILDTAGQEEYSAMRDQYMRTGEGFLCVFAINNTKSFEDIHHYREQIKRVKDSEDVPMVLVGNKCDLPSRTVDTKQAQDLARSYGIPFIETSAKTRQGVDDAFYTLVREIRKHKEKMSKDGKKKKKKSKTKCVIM
# Sequence (P62937 whole entry): as the sequence (P62937 whole entry) above
# procedure.summary: Ras-Raf disruption/FRET/MOA assay (BRAF RBD, Cyclophilin A)
# Format: biochemical
# condition.summary: read-out: KRAS G12S FRET IC50
pIC50: −log10 of the molar value.
Parameter pIC50: see the listing below.

[[record]]
molecule = "CCn1c(-c2cccnc2[C@H](C)OC)c2c3cc(ccc31)-c1csc(n1)C[C@H](NC(=O)[C@H](C(C)C)N(C)C(=O)N1CC(O)(COC)C1)C(=O)N1CCC[C@H](N1)C(=O)OCC(C)(C)C2 [Compound A553]"
recorded_metric = "pIC50"
result = "5.00 to 6.00"

[[record]]
molecule = "CCn1c(-c2cnccc2COC)c2c3cc(ccc31)-c1cc(O)cc(c1)C[C@H](NC(=O)[C@H](C(C)C)N(C)C(=O)C1(C)COC1)C(=O)N1CCC[C@H](N1)C(=O)OCC(C)(C)C2 [Compound A49]"
recorded_metric = "pIC50"
result = "5.00 to 6.00"


Kindly review the next molecule as well.
Which pIC50 value belongs to CCn1c(-c2cccnc2[C@H](C)OC)c2c3cc(ccc31)-c1cc(O)cc(c1)C[C@H](NC(=O)[C@H](C(C)C)N(C)C(=O)[C@H]1OCC[C@H]1c1ccccc1)C(=O)N1CCC[C@H](N1)C(=O)OCC(C)(C)C2 [Compound A425] ?
5.00 to 6.00

====

# system.tested: KRAS G12S (Homo sapiens (Human), UniProt P01116+P62937, G12S)
# procedure.summary: Ras-Raf disruption/FRET/MOA assay (BRAF RBD, Cyclophilin A)
# Format: biochemical
# condition.summary: read-out: KRAS G12S FRET IC50
pIC50: −log10 of the molar value.
recorded.metric: pIC50

// solved cases for pIC50 follow
[[record]]
compound = "CCN(C)C(=O)N(C)[C@H](C(=O)N[C@H]1Cc2nc(cs2)-c2ccc3c(c2)c(c(-c2cccnc2[C@H](C)OC)n3CC)CC(C)(C)COC(=O)[C@@H]2CCCN(N2)C1=O)C(C)C"
result = "6.00 to 7.00"

[[record]]
compound = "C[C@H]1C[C@@H]1C(=O)N[C@H]1Cc2nc(cs2)-c2ccc3c(c2)c(c(-c2ccnc(N4CCN(C)CC4)c2)n3C(C)(C)C#N)CC(C)(C)COC(=O)[C@@H]2CCCN(N2)C1=O"
result = "5.00 to 6.00"

[[record]]
compound = "CCn1c(-c2cccnc2[C@H](C)OC)c2c3cc(ccc31)-c1csc(n1)C[C@H](NC(=O)[C@H](C(C)C)N(C)C(=O)N1CCOC3(COC3)C1)C(=O)N1CCC[C@H](N1)C(=O)OCC(C)(C)C2"
result = "6.00 to 7.00"

[[record]]
compound = "CCn1c(-c2cccnc2[C@H](C)OC)c2c3cc(ccc31)-c1csc(n1)C[C@H](NC(=O)[C@H](C(C)C)N(C)C(=O)N(C)C1CN(C)C1)C(=O)N1CCC[C@H](N1)C(=O)OCC(C)(C)C2"
result = "6.00 to 7.00"

[[record]]
compound = "CCn1c(-c2cccnc2[C@H](C)OC)c2c3cc(ccc31)-c1csc(n1)C[C@H](NC(=O)[C@H](C(C)C)N(C)C(=O)N1CC(OC)C1)C(=O)N1CCC[C@H](N1)C(=O)OCC(C)(C)C2 [Compound A205]"
result = "6.00 to 7.00"

[[record]]
compound = "CCn1c(-c2cnccc2COC)c2c3cc(ccc31)-c1cc(O)cc(c1)C[C@H](NC(=O)[C@H](C(C)C)N(C)C(=O)[C@H]1CN(C(C)=O)C[C@H]1C(F)(F)F)C(=O)N1CCC[C@H](N1)C(=O)OCC(C)(C)C2"
result = "6.00 to 7.00"

[[record]]
compound = "CCn1c(-c2cccnc2COC)c2c3cc(ccc31)-c1cc(O)cc(c1)C[C@H](NC(=O)[C@H](C(C)C)N(C)C(=O)c1ccc(NC(=O)/C=C/CN(C)C)cn1)C(=O)N1CCC[C@H](N1)C(=O)OCC(C)(C)C2"
result = "6.00 to 7.00"

[[record]]
compound = "CCn1c(-c2cccnc2[C@H](C)OC)c2c3cc(ccc31)-c1csc(n1)C[C@H](NC(=O)[C@H](C(C)C)N(C)C(=O)N(C)C1(C)COC1)C(=O)N1CCC[C@H](N1)C(=O)OCC(C)(C)C2"
result = "6.00 to 7.00"


Kindly review the next compound as well.
Which pIC50 value belongs to CCn1c(-c2cccnc2[C@H](C)OC)c2c3cc(ccc31)-c1cc(O)cc(c1)C[C@H](NC(=O)[C@@H]1[C@H](C)CCN1C(C)=O)C(=O)N1CCC[C@H](N1)C(=O)OCC(C)(C)C2 ?
5.00 to 6.00
